Target: T1, mouse MET ECD (mouse, UniProt P16056 25-931)
T1 construct: range 1-931; recombinant ECD made by the applicants; the stated range begins at residue 1; also called mMET; mMET ECD
T1 sequence (P16056 25-931 limits assumed, form in doubt): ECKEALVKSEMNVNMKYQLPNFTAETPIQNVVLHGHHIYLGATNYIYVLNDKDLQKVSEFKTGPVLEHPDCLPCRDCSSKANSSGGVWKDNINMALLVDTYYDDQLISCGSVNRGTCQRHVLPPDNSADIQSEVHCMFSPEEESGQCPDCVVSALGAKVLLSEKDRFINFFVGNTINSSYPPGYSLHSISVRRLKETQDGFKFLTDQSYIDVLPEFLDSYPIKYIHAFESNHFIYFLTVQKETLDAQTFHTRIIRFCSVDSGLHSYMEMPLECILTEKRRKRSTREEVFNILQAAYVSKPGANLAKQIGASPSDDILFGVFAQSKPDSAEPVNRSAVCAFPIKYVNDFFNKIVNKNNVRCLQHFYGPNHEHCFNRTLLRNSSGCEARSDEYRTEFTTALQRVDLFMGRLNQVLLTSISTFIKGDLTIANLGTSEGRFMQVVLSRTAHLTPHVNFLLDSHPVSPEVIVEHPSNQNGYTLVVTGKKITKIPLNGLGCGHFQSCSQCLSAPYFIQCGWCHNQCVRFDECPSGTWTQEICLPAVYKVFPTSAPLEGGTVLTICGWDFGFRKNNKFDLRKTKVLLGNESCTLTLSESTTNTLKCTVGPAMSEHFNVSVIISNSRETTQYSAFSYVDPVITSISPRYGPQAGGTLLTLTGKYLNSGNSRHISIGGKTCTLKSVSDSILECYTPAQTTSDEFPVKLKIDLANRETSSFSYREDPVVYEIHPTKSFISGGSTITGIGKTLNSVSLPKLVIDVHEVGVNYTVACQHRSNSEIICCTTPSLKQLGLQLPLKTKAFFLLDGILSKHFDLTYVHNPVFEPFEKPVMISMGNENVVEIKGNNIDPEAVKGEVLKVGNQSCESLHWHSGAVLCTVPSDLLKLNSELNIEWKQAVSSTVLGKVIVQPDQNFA
Assay: SPR, MET ECD on chip, crude periplasmic Fab
Description: Fab-expressing phages from the libraries described above were produced according to standard phage display protocols. For selection, phages were first adsorbed to immobilized recombinant human MET ECD, washed, and then eluted using trypsin. […] The Fab off-rates (koff) were measured over a two minute period. […] TABLE 7 Fabs binding to both human MET (hMET) and mouse MET (mMET). […] Binding of Fabs to human and mouse MET ECD was determined by Surface Plasmon Resonance (SPR) and by ELISA. […]
measured_metric: koff

In the examples that follow, each entry is paired with its recorded koff.
71D6 Fab (Fab, V domains shown, llama Fab (VH-CH1 and lambda VL-CL) with MYC flag, crude periplasmic extract) VH: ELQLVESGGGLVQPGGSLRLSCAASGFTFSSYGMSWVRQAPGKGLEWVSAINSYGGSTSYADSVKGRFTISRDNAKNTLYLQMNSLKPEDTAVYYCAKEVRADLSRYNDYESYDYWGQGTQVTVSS VL: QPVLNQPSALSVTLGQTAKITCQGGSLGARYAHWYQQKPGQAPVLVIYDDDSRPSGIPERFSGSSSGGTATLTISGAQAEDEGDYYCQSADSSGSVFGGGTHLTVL	0.00267 s⁻¹
72F8 Fab (Fab, V domains shown, llama Fab (VH-CH1 and lambda VL-CL) with MYC flag, crude periplasmic extract) VH: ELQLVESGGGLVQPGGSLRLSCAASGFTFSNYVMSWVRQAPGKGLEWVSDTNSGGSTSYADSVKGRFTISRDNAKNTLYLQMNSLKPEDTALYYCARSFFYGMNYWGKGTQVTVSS VL: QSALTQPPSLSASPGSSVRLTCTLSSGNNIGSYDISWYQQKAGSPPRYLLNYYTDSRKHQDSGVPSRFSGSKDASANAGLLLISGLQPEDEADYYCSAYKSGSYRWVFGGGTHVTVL	0.00458 s⁻¹
71A3 Fab (Fab, V domains shown, llama Fab (VH-CH1 and lambda VL-CL) with MYC flag, crude periplasmic extract) VH: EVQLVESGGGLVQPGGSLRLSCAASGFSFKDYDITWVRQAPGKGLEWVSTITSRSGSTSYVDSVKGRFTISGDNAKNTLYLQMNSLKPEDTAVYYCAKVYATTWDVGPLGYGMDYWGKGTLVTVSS VL: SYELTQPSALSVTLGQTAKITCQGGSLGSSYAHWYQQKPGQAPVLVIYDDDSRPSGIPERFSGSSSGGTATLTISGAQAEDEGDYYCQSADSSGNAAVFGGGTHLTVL	0.00474 s⁻¹
71G12 Fab (Fab, V domains shown, llama Fab (VH-CH1 and kappa VL-CL) with MYC flag, crude periplasmic extract) VH: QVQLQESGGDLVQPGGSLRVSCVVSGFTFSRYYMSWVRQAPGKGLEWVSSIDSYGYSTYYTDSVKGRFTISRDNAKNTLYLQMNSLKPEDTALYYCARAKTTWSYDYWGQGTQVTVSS VL: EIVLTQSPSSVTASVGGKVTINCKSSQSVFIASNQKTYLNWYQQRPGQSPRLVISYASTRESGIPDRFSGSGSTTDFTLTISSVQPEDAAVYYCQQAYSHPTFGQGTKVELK	0.00255 s⁻¹

Query: Which koff is reported for this binder? 71G3 Fab (Fab, V domains shown, llama Fab (VH-CH1 and lambda VL-CL) with MYC flag, crude periplasmic extract) VH: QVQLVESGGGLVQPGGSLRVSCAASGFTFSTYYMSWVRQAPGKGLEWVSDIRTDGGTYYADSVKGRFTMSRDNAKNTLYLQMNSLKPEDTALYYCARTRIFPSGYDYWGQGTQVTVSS VL: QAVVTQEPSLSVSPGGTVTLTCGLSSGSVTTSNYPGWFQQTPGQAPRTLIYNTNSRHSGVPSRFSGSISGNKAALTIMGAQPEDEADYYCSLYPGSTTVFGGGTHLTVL
Response: 0.00141 s⁻¹

Where these numbers come from: patent US20210087281A1
